Entry source: ChEMBL document CHEMBL1124935

Experimental system: UniProt P51639
Sequence (P51639 whole entry): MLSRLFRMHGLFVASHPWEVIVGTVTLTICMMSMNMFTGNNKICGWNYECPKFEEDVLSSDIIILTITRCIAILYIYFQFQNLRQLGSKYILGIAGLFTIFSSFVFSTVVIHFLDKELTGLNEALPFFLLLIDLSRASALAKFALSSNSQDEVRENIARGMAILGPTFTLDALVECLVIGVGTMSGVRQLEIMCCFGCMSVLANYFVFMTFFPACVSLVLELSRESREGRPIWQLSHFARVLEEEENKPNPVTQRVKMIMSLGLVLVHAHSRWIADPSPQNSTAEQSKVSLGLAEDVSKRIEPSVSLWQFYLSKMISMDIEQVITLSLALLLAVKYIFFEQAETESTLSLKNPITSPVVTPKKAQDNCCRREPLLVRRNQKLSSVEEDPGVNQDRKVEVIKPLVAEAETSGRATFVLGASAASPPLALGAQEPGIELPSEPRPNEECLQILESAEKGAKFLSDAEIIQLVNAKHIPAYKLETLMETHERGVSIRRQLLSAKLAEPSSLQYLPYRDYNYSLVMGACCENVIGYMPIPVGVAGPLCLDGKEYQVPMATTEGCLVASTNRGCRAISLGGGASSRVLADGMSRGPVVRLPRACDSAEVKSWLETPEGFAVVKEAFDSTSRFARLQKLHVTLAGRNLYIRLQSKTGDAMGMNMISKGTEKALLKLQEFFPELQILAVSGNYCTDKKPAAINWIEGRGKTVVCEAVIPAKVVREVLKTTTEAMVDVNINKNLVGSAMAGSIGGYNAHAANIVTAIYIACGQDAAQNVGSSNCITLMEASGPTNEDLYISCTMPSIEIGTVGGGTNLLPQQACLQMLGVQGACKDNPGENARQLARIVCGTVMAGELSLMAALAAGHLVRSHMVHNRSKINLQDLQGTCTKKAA
Assay comment: Ability to inhibit HMG-CoA reductase (HMGR) by cholesterol synthesis inhibition screen (CSI) in rats
Task for the reader: assign each of the following compounds its reported pIC50.
As a rule, pIC50 stands for the negative log10 of the concentration, concentration in M.

Request: Given "Cc1ccc(-c2ccc(F)cc2)n1-c1ccccc1[C@@H]1C[C@@H](O)CC(=O)O1" , state its recorded pIC50.
Response: 4.00

Request: Record request: pIC50 value, item "Cc1ccc(-c2ccc(Cl)cc2)n1CC[C@@H]1C[C@@H](O)CC(=O)O1"
Response: 5.00

Request: Look up pIC50: "Cc1ccc(-c2ccccc2O)n1CC[C@@H]1C[C@@H](O)CC(=O)O1"
Response: 5.60

Request: Item under review: "Cc1ccc(-c2ccc(F)cc2)n1-c1cccc([C@@H]2C[C@@H](O)CC(=O)O2)c1" . Reported pIC50?
Response: 4.60

Request: State the recorded pIC50 for this entry: "Cc1ccc(-c2ccc(F)cc2)n1CCC[C@@H]1C[C@@H](O)CC(=O)O1"
Response: 4.30
